assay: AUC (0 to infinity) in Sprague-Dawley rat at 4 mg/kg, iv measured upto 72 hrs by (LC-MS)/MS analysis; format: ADME, organism-based; conditions: in vivo
measured_property: AUC(0-inf) (ng·h/mL)
Report the value in ng·h/mL with no unit label.

Give the measured AUC(0-inf) of COc1cc2ncnc(Nc3cccc(Cl)c3F)c2cc1OCCCCNCc1c(OC)cc(OCc2cccc(-c3ccccc3)c2C)cc1OC .
2910

* * *

assay: Half life in Sprague-Dawley rat at 20 mg/kg, po measured upto 72 hrs by (LC-MS)/MS analysis; type: ADME, organism-based; conditions: in vivo
measured_property: half-life (h)
Numeric answer only, unit h assumed.

Consider the compound COc1cc2ncnc(Nc3cccc(Cl)c3F)c2cc1OCCCCNCc1c(OC)cc(OCc2cccc(-c3ccccc3)c2C)cc1OC and give its measured half-life.
13
